- assaySystem: Recombinant human JAK3 catalytic domain (Homo sapiens)
- Construct: catalytic domain (amino acids 795-1124; catalog number 08-046)
- assayRemarks: JAK3 inhibition assay
- studyConditions: polyGT substrate, 33P-gamma-ATP filter assay, 1 μM ATP
recordedMetric: IC50

CC(=O)Nc1cc2c(-c3ccc(CN4CCS(=O)(=O)CC4)c(F)c3)cccn2n1 [Compound 27]	0.01 to 100 nM
O=C(Nc1cc2c(-c3ccc(CN4CCCCC45COC5)cc3)cccn2n1)C1CC1 [Compound 48]	0.01 to 100 nM
O=C(Nc1cc2c(-c3ccc(C(=O)N4CCCCC4)cc3)cccn2n1)C1CC1 [Compound 14]	101 to 500 nM
O=C(Nc1nn2cccc(-c3ccc(CN4CCS(=O)(=O)CC4)cc3)c2c1Cl)C1CC1 [Compound 13]	101 to 500 nM
C[C@H](c1ccc(-c2cccn3nc(NC(=O)C4CC4)cc23)cc1)N1CCN(S(C)(=O)=O)CC1 [Compound 46]	0.01 to 100 nM

Exam item: Tell us which IC50 value is on record for O=C(Nc1cc2c(-c3ccc(CN4CCS(=O)(=O)CC4)cc3)cccn2n1)C1CC1 [Compound 10]
Marked response: 0.01 to 100 nM

Exam item: Could you please provide reported IC50 for CC(=O)Nc1cc2c(-c3ccc(CN4CCN(S(C)(=O)=O)CC4)cc3)cccn2n1 [Compound 25] ? Thanks!
Marked response: 101 to 500 nM

Exam item: Give IC50 for the following compound: CS(=O)(=O)C1CCN(Cc2ccc(-c3cccn4nc(NC(=O)C5CC5)cc34)cc2F)CC1 [Compound 18]
Marked response: 101 to 500 nM

Exam item: Please look at this compound and report its IC50: CC(=O)Nc1cc2c(-c3ccc(C(C)N4CCN(S(C)(=O)=O)CC4)cc3)cccn2n1 (centres unmarked) [Compound 45]
Marked response: 101 to 500 nM

Exam item: Recall and state the measured IC50 for O=C(NCCOc1ccccc1)c1ccc(-c2cccn3nc(NC(=O)C4CC4)cc23)cc1 [Compound 6] .
Marked response: 0.01 to 100 nM

Exam item: Identify the reported IC50 for the following entry. O=C(Nc1nn2cccc(-c3ccc(CN4CCS(=O)(=O)CC4)cc3)c2c1F)C1CC1 [Compound 11]
Marked response: 0.01 to 100 nM

* * *

- assaySystem: Recombinant human JAK2 catalytic domain (Homo sapiens, UniProt O60674)
- Construct: catalytic domain (amino acids 808-1132; catalog number PV4210); GST
- Sequence (O60674 808-1132): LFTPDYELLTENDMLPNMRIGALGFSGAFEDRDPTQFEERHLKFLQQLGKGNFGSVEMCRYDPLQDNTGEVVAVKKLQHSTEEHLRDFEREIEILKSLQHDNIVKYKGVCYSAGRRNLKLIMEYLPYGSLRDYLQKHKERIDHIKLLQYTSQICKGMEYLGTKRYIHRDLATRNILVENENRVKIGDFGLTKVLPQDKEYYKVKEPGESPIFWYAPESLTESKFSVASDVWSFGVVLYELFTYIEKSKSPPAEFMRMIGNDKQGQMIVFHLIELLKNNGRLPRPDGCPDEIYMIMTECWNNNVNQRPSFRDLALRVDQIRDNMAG
- assayRemarks: JAK2 assay polyGT substrate
- studyConditions: 33P-gamma-ATP filter assay, 1 μM ATP
recordedMetric: IC50

Example results:
O=C(NCCc1ccccc1)c1ccc(-c2cccn3nc(NC(=O)C4CC4)cc23)cc1 [Compound 5]	0.01 to 100 nM
O=C(Nc1cc2c(-c3ccc(OCc4cccnc4)cc3)cccn2n1)C1CC1 [Compound 8]	0.01 to 100 nM
O=C(NCCOc1ccccc1)c1ccc(-c2cccn3nc(NC(=O)C4CC4)cc23)cc1 [Compound 6]	0.01 to 100 nM
O=C(Nc1cc2c(-c3ccc(OCc4ccccc4)cc3)cccn2n1)C1CC1 [Compound 2]	101 to 500 nM

Exam item: Input O=C(Nc1cc2c(-c3ccc4[nH]ccc4c3)cccn2n1)C1CC1 [Compound 4] , output reported IC50.
Marked response: 0.01 to 100 nM

Exam item: Could you please provide reported IC50 for COc1ccc(-c2cccn3nc(NC(=O)C4CC4)cc23)cc1 [Compound 1] ? Thanks!
Marked response: 0.01 to 100 nM

Exam item: Name the recorded IC50 of the item COc1ccc(-c2cccn3nc(NC(=O)C4CC4)c(-c4ccccc4)c23)cc1 [Compound 7] in your answer.
Marked response: > 1000 nM

Exam item: Identify measured IC50 associated with O=C(Nc1cc2c(-c3ccc4c(ccn4Cc4ccccc4)c3)cccn2n1)C1CC1 [Compound 3]
Marked response: 101 to 500 nM

* * *

- assaySystem: TYK2 (Homo sapiens, UniProt P29597)
- Sequence (P29597 871-1187): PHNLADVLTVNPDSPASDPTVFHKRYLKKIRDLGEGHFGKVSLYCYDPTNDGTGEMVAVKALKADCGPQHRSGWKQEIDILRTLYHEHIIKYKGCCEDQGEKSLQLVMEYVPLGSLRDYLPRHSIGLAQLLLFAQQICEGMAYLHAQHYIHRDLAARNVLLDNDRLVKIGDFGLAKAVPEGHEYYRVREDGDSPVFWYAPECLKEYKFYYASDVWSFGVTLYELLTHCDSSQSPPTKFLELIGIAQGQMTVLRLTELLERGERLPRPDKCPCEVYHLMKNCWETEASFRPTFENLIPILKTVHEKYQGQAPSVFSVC
recordedMetric: Ki (nM)
Just the number in nM, nothing appended.

Exam item: Please tell me the measured Ki for CC(=O)Nc1cc2c(-c3ccc(CN4CCN(S(C)(=O)=O)CC4)c(F)c3)cccn2n1 [Compound 21] ; system: TYK2 (Homo sapiens, UniProt P29597).
Marked response: 135

* * *

The reader will find reported IC50 values listed item by item below.
- assaySystem: Recombinant human JAK2 (Homo sapiens)
- Construct: catalytic domain (amino acids 808-1132; catalog number PV4210); GST
- Sequence (O60674 808-1132): as the sequence (O60674 808-1132) above
- assayRemarks: JAK2 Ulight-JAK1 peptide assay
- studyConditions: Ulight-JAK1(tyr1023) peptide, 7.5 μM ATP

O=C(Nc1cc2c(-c3ccc4[nH]ccc4c3)cccn2n1)C1CC1	0.01 to 100 nM

Exam item: Retrieve IC50 measured for CC(c1ccc(-c2cccn3nc(NC(=O)C4CC4)cc23)cc1)N1CCN(S(C)(=O)=O)CC1 (stereo not drawn) and print it.
Marked response: 0.01 to 100 nM

Exam item: Return value of IC50 for input CC(=O)Nc1cc2c(-c3cnc(CN4CCN(S(C)(=O)=O)CC4)c(F)c3)cccn2n1 , no commentary.
Marked response: 101 to 500 nM

Exam item: Annotate the compound CS(=O)(=O)C1CCN(Cc2ccc(-c3cccn4nc(NC(=O)C5CC5)cc34)cc2)CC1 with its measured IC50.
Marked response: 0.01 to 100 nM

Exam item: Give the reported IC50 for this compound. CS(=O)(=O)N1CCN(Cc2ccc(-c3cccn4nc(NC(=O)C5CC5)cc34)cn2)CC1
Marked response: 101 to 500 nM

Exam item: Give the measured IC50 for C[C@H](c1ccc(-c2cccn3nc(NC(=O)C4CC4)cc23)cc1)N1CCN(S(C)(=O)=O)CC1
Marked response: 0.01 to 100 nM

Exam item: Please give measured IC50 of the following entry: CC(=O)Nc1cc2c(-c3ccc(C(=O)N4COCC4(C)C)cc3)cccn2n1
Marked response: 101 to 500 nM

Exam item: Give the value of IC50 reported for the following: CC(=O)Nc1cc2c(-c3ccc(C(=O)N4CCCCC4)cc3)cccn2n1
Marked response: 101 to 500 nM

Exam item: Answer with reported IC50 of CC(=O)Nc1cc2c(-c3cnc(OCCn4cccn4)c(F)c3)cccn2n1
Marked response: 101 to 500 nM

Exam item: Could you please provide reported IC50 for CC(=O)Nc1cc2c(-c3ccc(CN4CCS(=O)(=O)CC4)c(F)c3)cccn2n1 ? Thanks!
Marked response: 0.01 to 100 nM

* * *

Catalogue of IC50 values
- assaySystem: Recombinant human JAK3 catalytic domain (Homo sapiens, UniProt P52333)
- Construct: catalytic domain (amino acids 795-1124; catalog number 08-046)
- Sequence (P52333 795-1124): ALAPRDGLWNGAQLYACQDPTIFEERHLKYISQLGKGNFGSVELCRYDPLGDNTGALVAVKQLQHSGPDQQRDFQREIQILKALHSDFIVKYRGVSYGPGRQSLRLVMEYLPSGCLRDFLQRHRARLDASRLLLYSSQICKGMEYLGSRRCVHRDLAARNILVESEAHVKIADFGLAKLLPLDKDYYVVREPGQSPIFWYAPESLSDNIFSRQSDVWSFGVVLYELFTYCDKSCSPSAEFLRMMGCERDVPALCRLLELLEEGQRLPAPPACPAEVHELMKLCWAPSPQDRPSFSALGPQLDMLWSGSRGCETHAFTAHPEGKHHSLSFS
- assayRemarks: JAK3 inhibition assay
- studyConditions: polyGT substrate, 33P-gamma-ATP filter assay, 1 μM ATP
- Procedure: Recombinant human JAK3 catalytic domain (amino acids 795-1124; catalog number 08-046) was purchased from Carna Biosciences. […] 40 μL/well of Microscint-20 was added, the top of the plates was sealed and readout was performed using the Topcount (Perkin Elmer). Kinase activity was calculated by subtracting counts per min (cpm) obtained in the presence of a positive control inhibitor (10 μM staurosporine) from cpm obtained in the presence of vehicle. […]

CS(=O)(=O)N1CC[C@@H](Oc2ccc(-c3cccn4nc(NC(=O)C5CC5)cc34)cc2)C1	0.01 to 100 nM
CC(=O)Nc1cc2c(-c3ccc(CN4CCN(CC(F)(F)F)CC4)c(F)c3)cccn2n1	101 to 500 nM
O=C(Nc1cc2c(-c3ccc4c(ccn4Cc4ccccc4)c3)cccn2n1)C1CC1	0.01 to 100 nM

Here's the next entry for you.
Exam item: Would you please give the reported IC50 of CC(=O)Nc1cc2c(-c3ccc(CN4CCN(S(C)(=O)=O)CC4)c(F)c3)cccn2n1 with Recombinant human JAK3 catalytic domain (Homo sapiens, UniProt P52333)?
Marked response: 101 to 500 nM

* * *

Measured IC50 of individual entries
- assaySystem: Recombinant human TYK2 catalytic domain (Homo sapiens, UniProt P29597)
- Construct: catalytic domain (amino acids 871-1187; catalog number 08-147); GST
- assayRemarks: TYK2 inhibition assay
- studyConditions: polyGT substrate, 33P-gamma-ATP filter assay, 0.1 μM ATP

Study these solved cases before continuing.
O=C(Nc1nn2cccc(-c3ccc(CN4CCS(=O)(=O)CC4)cc3)c2c1Cl)C1CC1	0.01 to 100 nM
CC(=O)Nc1cc2c(-c3ccc(CC(=O)N4COCC4(C)C)cc3)cccn2n1	101 to 500 nM
C[C@H](c1ccc(-c2cccn3nc(NC(=O)C4CC4)cc23)cc1)N1CCN(S(C)(=O)=O)CC1	0.01 to 100 nM
CS(=O)(=O)N1CCN(Cc2ccc(-c3cccn4nc(NC(=O)C5CC5)cc34)cc2)CC1	0.01 to 100 nM
COc1ccc(-c2cccn3nc(NC(=O)C4CC4)c(-c4ccccc4)c23)cc1	> 1000 nM
N#Cc1ccc(COc2ccc(-c3cccn4nc(NC(=O)C5CC5)cc34)cc2)cn1	0.01 to 100 nM

Exam item: Specify measured IC50 for CS(=O)(=O)C1CCN(Cc2ccc(-c3cccn4nc(NC(=O)C5CC5)c(Cl)c34)cc2)CC1 .
Marked response: 101 to 500 nM

Exam item: Specify measured IC50 for CC(=O)Nc1cc2c(-c3ccc(CC(=O)N4CCCCC4)cc3)cccn2n1 .
Marked response: 0.01 to 100 nM
